Would you kindly list IC50 for each of these binders?
TGT: T1, rat amylin receptor (rat calcitonin receptor + rat RAMP 3) (rat, UniProt P32214 25-516; Q9JJ73 23-147)
T1 construct: whole, on cells; Used as membranes prepared from the transfected cells (Assay VI); also called rAmylin-R; rat amylin 3(a) receptor
T1 sequence (looked up) 1: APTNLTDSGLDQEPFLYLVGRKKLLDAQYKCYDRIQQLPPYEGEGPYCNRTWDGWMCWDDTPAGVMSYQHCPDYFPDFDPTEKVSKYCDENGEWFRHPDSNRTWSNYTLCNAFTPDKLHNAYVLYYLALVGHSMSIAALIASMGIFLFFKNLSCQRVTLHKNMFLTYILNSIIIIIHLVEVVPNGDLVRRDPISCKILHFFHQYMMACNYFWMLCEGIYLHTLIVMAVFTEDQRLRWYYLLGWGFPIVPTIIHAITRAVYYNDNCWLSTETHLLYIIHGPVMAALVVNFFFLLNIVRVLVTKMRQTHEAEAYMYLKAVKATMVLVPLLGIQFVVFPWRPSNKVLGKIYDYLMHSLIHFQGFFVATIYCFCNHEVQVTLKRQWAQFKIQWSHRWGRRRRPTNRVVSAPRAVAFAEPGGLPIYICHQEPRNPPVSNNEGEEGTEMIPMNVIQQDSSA
T1 sequence (looked up) 2: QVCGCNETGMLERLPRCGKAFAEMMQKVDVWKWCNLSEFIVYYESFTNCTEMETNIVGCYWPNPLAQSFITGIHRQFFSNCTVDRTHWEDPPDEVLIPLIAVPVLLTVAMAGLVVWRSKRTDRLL
PROTOCOL DESCRIPTION: SPA competition binding, displacement of 125I-rat amylin from membranes of BHK tk'ts 13 cells transfected with rat calcitonin receptor + rat RAMP 3 (Assay VI)
Numbered stars: 1 amine (or outer) side, 2 acyl side, 3 side chain; on linkers, the order of the positions; unused ones are H or OH. Bridge positions count the residues as written; N and C are the ends. Side chains are listed from the residue outwards. Ends that are not written are not given here. * marks the point of attachment. C20 diacid = O=C(O)CCCCCCCCCCCCCCCCCCC(=O)*; γGlu = O=C(O)[C@H](CCC(=O)[*:2])N[*:1]
State the answer as a number, implicitly in pM.

According to the records, this binder K([γGlu-γGlu-C20 diacid])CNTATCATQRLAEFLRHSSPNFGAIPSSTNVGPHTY-NH2 (disulfide 2-7 (inferred), not restated for each compound) displays IC50 of 288

According to the records, this binder K([γGlu-γGlu-C20 diacid])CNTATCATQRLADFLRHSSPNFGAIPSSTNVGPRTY-NH2 (disulfide 2-7, not restated for each compound; also called compound 130) displays IC50 of 930

According to the records, this binder K([γGlu-C20 diacid])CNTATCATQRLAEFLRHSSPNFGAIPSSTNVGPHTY-NH2 (disulfide 2-7, not restated for each compound) displays IC50 of 104
